# Tested on: TK-10;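 note: growth inhibition of TK-10 cells, read out in a cell viability assay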
# Protocol notes: cells
# Type: functional, cell-based
# Cond: Homo sapiens
# Description: SANGER: Inhibition of human TK10 cell growth in a cell viability assay.
Readings of pIC50 for the listed compounds
Would you please state pIC50, meaning minus log10 of the concentration in mol/L, as a bare number?

Cn1c(=O)n(-c2ccc(C(C)(C)C#N)cc2)c2c3cc(-c4cnc5ccccc5c4)ccc3ncc21	7.00

For the next question, use this compound.
Kindly state the measured pIC50 obtained for CC(=O)c1c(C)c2cnc(Nc3ccc(N4CCNCC4)cn3)nc2n(C2CCCC2)c1=O with TK-10. 5.49

* * *

# Test system: CP50-MEL-B;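 note: growth inhibition of the human cell line, measured with a cell viability read-out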
# Protocol notes: cells
# Type: functional, cell-based
# Cond: Homo sapiens
# Description: SANGER: Inhibition of human CP50-MEL-B cell growth in a cell viability assay.
Readout kind: IC50

Sample records with IC50:
COc1cc(Nc2c(C#N)cnc3cc(OCCCN4CCN(C)CC4)c(OC)cc23)c(Cl)cc1Cl	> 2000 nM
O=c1cc(N2CCOCC2)oc2c(-c3cccc4c3sc3ccccc34)cccc12	> 2000 nM
C[C@]1(c2nc3c(C(N)=O)cccc3[nH]2)CCCN1	> 5000 nM

Bench note: what IC50 did N#C/C(=C1/Nc2ccccc2S1)c1ccnc(NCCc2cccnc2)n1 show? > 8000 nM

Data request, read-out IC50, for CC[C@]1(O)C[C@@H]2CN(CCc3c([nH]c4ccccc34)[C@@](C(=O)OC)(c3cc4c(cc3OC)N(C)[C@H]3[C@@](O)(C(=O)OC)[C@H](OC(C)=O)[C@]5(CC)C=CCN6CC[C@]43[C@@H]65)C2)C1 13.1 nM

* * *

# Test system: HC-1;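 note: growth inhibition of HC-1 cells measured by a cell viability assay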
# Protocol notes: cells
# Type: functional, cell-based
# Cond: Homo sapiens
# Description: SANGER: Inhibition of human HC-1 cell growth in a cell viability assay.
# IC50 values compiled below
Please respond with the number in µM and leave the unit unwritten.

Entry CCNC(=O)c1noc(-c2cc(C(C)C)c(O)cc2O)c1-c1ccc(CN2CCOCC2)cc1 has what IC50? 0.0407

Give the measured IC50 of Fc1cc(-c2cc[nH]/c(=N/c3ccc(-n4cnc(N5CCOCC5)n4)cc3)n2)cc(N2CCOCC2)c1 . 0.301

* * *

# Test system: SK-NEP-1;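 note: growth inhibition of human SK-NEP-1 cells, read out by a cell viability assay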
# Protocol notes: cells
# Type: functional, cell-based
# Cond: Homo sapiens
# Description: SANGER: Inhibition of human SK-NEP-1 cell growth in a cell viability assay.
pIC50: −log10 of the molar value.
Quick rule for you: pIC50 at 7 or higher means t, lower means f.

Example cases with answers are listed next.
CC(=O)c1c(C)c2cnc(Nc3ccc(N4CCNCC4)cn3)nc2n(C2CCCC2)c1=O	f
Cc1[nH]c(/C=C2\C(=O)Nc3ccc(S(=O)(=O)Cc4c(Cl)cccc4Cl)cc32)c(C)c1C(=O)N1CCC[C@@H]1CN1CCCC1	f
N#C/C(=C1/Nc2ccccc2S1)c1ccnc(NCCc2cccnc2)n1	f
Cc1nc(Nc2ncc(C(=O)Nc3c(C)cccc3Cl)s2)cc(N2CCN(CCO)CC2)n1	f
O=c1[nH]c2ccccc2n1C1CCN(Cc2ccc(-c3nc4cc5[nH]cnc5cc4nc3-c3ccccc3)cc2)CC1	f

Answer whether pIC50 of CC[C@@]1(O)C(=O)OCc2c1cc1n(c2=O)Cc2cc3ccccc3nc2-1 is greater than or equal to 7. t

pIC50 >= 7 for Cn1c(=O)n(-c2ccc(C(C)(C)C#N)cc2)c2c3cc(-c4cnc5ccccc5c4)ccc3ncc21 ? t

Could you tell me if the measured pIC50 of Cc1n[nH]c2ccc(-c3cncc(OC[C@@H](N)Cc4c[nH]c5ccccc45)c3)cc12 reaches 7 or more? f

* * *

# System: SF-295;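 note: growth inhibition of SF-295 cells, read out with a cell viability assay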
# Protocol notes: cells
# Format: functional, cell-based
# Cond: Homo sapiens
# Description: SANGER: Inhibition of human SF295 cell growth in a cell viability assay.
Readout kind: IC50 (nM)
Supply the numeric figure in nM, leaving out any unit text.

Example entries begin here.
Fc1cc(-c2cc[nH]/c(=N/c3ccc(-n4cnc(N5CCOCC5)n4)cc3)n2)cc(N2CCOCC2)c1	555
CCNC(=O)c1noc(-c2cc(C(C)C)c(O)cc2O)c1-c1ccc(CN2CCOCC2)cc1	17.2
CC[C@]1(O)C[C@@H]2CN(CCc3c([nH]c4ccccc34)[C@@](C(=O)OC)(c3cc4c(cc3OC)N(C)[C@H]3[C@@](O)(C(=O)OC)[C@H](OC(C)=O)[C@]5(CC)C=CCN6CC[C@]43[C@@H]65)C2)C1	36.3

Now let's try a different one.
Please look up its IC50: CC[C@@]1(O)C(=O)OCc2c1cc1n(c2=O)Cc2cc3ccccc3nc2-1 7.91

* * *

# Tested on: MC-IXC
# Protocol notes: cells
# Format: functional, cell-based
# Cond: Homo sapiens
# Description: SANGER: Inhibition of human MC-IXC cell growth in a cell viability assay.
Let's look at some compounds and their measured IC50.
Write down the numeric answer in nM and omit the unit.

O=c1[nH]c2ccccc2n1C1CCN(Cc2ccc(-c3nc4cc5[nH]cnc5cc4nc3-c3ccccc3)cc2)CC1	2060

From here, focus on the item given below.
Provide the documented IC50 with MC-IXC as the system for CCNC(=O)c1noc(-c2cc(C(C)C)c(O)cc2O)c1-c1ccc(CN2CCOCC2)cc1 17.4

* * *

# Tested on: EOL1
# Protocol notes: cells
# Format: functional, cell-based
# Cond: Homo sapiens
# Description: SANGER: Inhibition of human EoL-1-cell cell growth in a cell viability assay.
pIC50: −log10 of the molar value.
Readout kind: pIC50

The examples below pair each entry with its known result.
CCNC(=O)c1noc(-c2cc(C(C)C)c(O)cc2O)c1-c1ccc(CN2CCOCC2)cc1	< 6.59
Cc1ccc(NC(=O)c2cccc(C(C)(C)C#N)c2)cc1Nc1ccc2ncn(C)c(=O)c2c1	< 5.40
N#C/C(=C1/Nc2ccccc2S1)c1ccnc(NCCc2cccnc2)n1	5.60

Look up pIC50 for this compound: O=c1[nH]c2ccccc2n1C1CCN(Cc2ccc(-c3nc4cc5[nH]cnc5cc4nc3-c3ccccc3)cc2)CC1 < 5.59

Need pIC50 of Cc1[nH]c(/C=C2\C(=O)Nc3ccc(S(=O)(=O)Cc4c(Cl)cccc4Cl)cc32)c(C)c1C(=O)N1CCC[C@@H]1CN1CCCC1 , thanks. < 5.70

* * *

Listed here are molecules together with their documented pIC50.
# System: RPMI-2650
# Protocol notes: cells
# Format: functional, cell-based
# Cond: Homo sapiens
# Description: SANGER: Inhibition of human RPMI-2650 cell growth in a cell viability assay.
pIC50: −log10 of the molar value.

O=c1cc(N2CCOCC2)oc2c(-c3cccc4c3sc3ccccc34)cccc12	< 5.70

# query: pIC50 of entry O=c1[nH]c2ccccc2n1C1CCN(Cc2ccc(-c3nc4cc5[nH]cnc5cc4nc3-c3ccccc3)cc2)CC1 < 5.59

What does the record list as pIC50 for CC(O)(CS(=O)(=O)c1ccc(F)cc1)C(=O)Nc1ccc(C#N)c(C(F)(F)F)c1 (stereo unspecified) [BICALUTAMIDE] ? < 5.99

* * *

# Test system: SW1990;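 note: cell growth inhibition determined with a viability assay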
# Protocol notes: cells
# Type: functional, cell-based
# Cond: Homo sapiens
# Description: SANGER: Inhibition of human SW1990 cell growth in a cell viability assay.
pIC50: −log10 of the molar value.
Below, each of the compounds is paired with its reported pIC50 value.

O=c1[nH]c2ccccc2n1C1CCN(Cc2ccc(-c3nc4cc5[nH]cnc5cc4nc3-c3ccccc3)cc2)CC1	< 5.59

I have this compound here, CCCS(=O)(=O)Nc1ccc(F)c(C(=O)c2c[nH]c3ncc(Cl)cc23)c1F , and I need its recorded pIC50. < 5.00

Item under review: N#C/C(=C1/Nc2ccccc2S1)c1ccnc(NCCc2cccnc2)n1 . Reported pIC50? < 5.10

// lookup pIC50 for Fc1cc(-c2cc[nH]/c(=N/c3ccc(-n4cnc(N5CCOCC5)n4)cc3)n2)cc(N2CCOCC2)c1 5.96

For the compound shown here, CC(C)=CC[C@@H](O)C1=CC(=O)c2c(O)ccc(O)c2C1=O , give the reported pIC50. 5.79

Need pIC50 of COc1cc(Nc2c(C#N)cnc3cc(OCCCN4CCN(C)CC4)c(OC)cc23)c(Cl)cc1Cl , thanks. < 5.70

Entry under review: C/C=C(/C)C(=O)O[C@H]1C(C)=C2[C@H]([C@@H]1OC(=O)CCCCCCC)[C@@](C)(OC(C)=O)C[C@H](OC(=O)CCC)[C@@]1(O)[C@H]2OC(=O)[C@@]1(C)O . Reported pIC50? > 8.70

Reported pIC50, compound O=c1cc(N2CCOCC2)oc2c(-c3cccc4c3sc3ccccc34)cccc12 : ____ < 5.70

* * *

# Tested on: SK-MEL-28
# Protocol notes: cells
# Type: functional, cell-based
# Cond: Homo sapiens
# Description: SANGER: Inhibition of human SK-MEL-28 cell growth in a cell viability assay.
Listed here: items and their measured pIC50.
Bear in mind: pIC50 is minus log10 of a mol/L concentration; give just that figure.

CC[C@@]1(O)C(=O)OCc2c1cc1n(c2=O)Cc2cc3ccccc3nc2-1 [CAMPTOTHECIN]	7.77

Next:
Any idea what its pIC50 is? The compound is Cn1c(=O)n(-c2ccc(C(C)(C)C#N)cc2)c2c3cc(-c4cnc5ccccc5c4)ccc3ncc21 [DACTOLISIB] 6.95

* * *

# Test system: EW-11;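 note: growth inhibition of human EW-11 cells, measured with a cell viability assay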
# Protocol notes: cells
# Type: functional, cell-based
# Cond: Homo sapiens
# Description: SANGER: Inhibition of human EW-11 cell growth in a cell viability assay.
Readout kind: IC50

O=c1[nH]c2ccccc2n1C1CCN(Cc2ccc(-c3nc4cc5[nH]cnc5cc4nc3-c3ccccc3)cc2)CC1	> 2560 nM
Fc1cc(-c2cc[nH]/c(=N/c3ccc(-n4cnc(N5CCOCC5)n4)cc3)n2)cc(N2CCOCC2)c1	1210 nM
C/C(O)=C(\C#N)C(=O)Nc1cc(Br)ccc1Br	> 16000 nM
COc1cc(Nc2c(C#N)cnc3cc(OCCCN4CCN(C)CC4)c(OC)cc23)c(Cl)cc1Cl	> 2000 nM
CCn1c(-c2nonc2N)nc2cnc(Oc3cccc(NC(=O)c4ccc(OCCN5CCOCC5)cc4)c3)cc21 [GSK-269962A]	> 2500 nM

Now consider a different molecule.
IC50 lookup needed for C[C@]12O[C@H](C[C@]1(O)CO)n1c3ccccc3c3c4c(c5c6ccccc6n2c5c31)CNC4=O , thanks. 132 nM
